Biological target: CDK7/cyclinH/MAT1 trimeric complex (Homo sapiens)
Test: In vitro CDK7 assay, potency of irreversible covalent inhibitors (kinact/KI), coupled PK/LDH ADP readout at 340 nm
Conditions: 20 nM enzyme
Consider the following compounds; for each one, report its CDK7 (20 nM enz.) (kinact, s^−1).
# output: bare number, implied unit s⁻¹

Query :: For the record C=CC(=O)N1CC[C@H](N2CC(c3cc4c(c(C5CC5)n3)OCc3c(N5CCOCC5)ccnc3N4)C2)C1 (single isomer, unassigned) , what value of CDK7 (20 nM enz.) (kinact, s^−1) is listed for CDK7/cyclinH/MAT1 trimeric complex (Homo sapiens)?
Result :: 7.882e-05

Query :: For the record C=CC(=O)N1CCC(N2CC(c3cc(C)c4c(c3)Nc3nccc(-c5cnn(C)c5)c3CO4)C2)CC1 , what value of CDK7 (20 nM enz.) (kinact, s^−1) is listed for CDK7/cyclinH/MAT1 trimeric complex (Homo sapiens)?
Result :: 5.051e-05

Query :: For the record C=CC(=O)N1CCC(N2CC(c3cc4c(c(C5CC5)n3)OCc3c(N5CCOCC5)ccnc3N4)C2)CC1 [Compound 336] , what value of CDK7 (20 nM enz.) (kinact, s^−1) is listed for CDK7/cyclinH/MAT1 trimeric complex (Homo sapiens)?
Result :: 1.295e-05

Query :: For the record C=CC(=O)N1CC(N2CCC(c3cc4c(c(C)n3)OCc3c(N5CCOCC5)ccnc3N4)CC2)C1 , what value of CDK7 (20 nM enz.) (kinact, s^−1) is listed for CDK7/cyclinH/MAT1 trimeric complex (Homo sapiens)?
Result :: 8.548e-05

Query :: For the record CC#CC(=O)N1CC(N2CCC(c3cc4c(c(C#N)n3)O[C@@H](C)c3c(N5CCOCC5)ccnc3N4)CC2)C1 (single isomer, unassigned) , what value of CDK7 (20 nM enz.) (kinact, s^−1) is listed for CDK7/cyclinH/MAT1 trimeric complex (Homo sapiens)?
Result :: 0.0000556

Query :: For the record C=CC(=O)N1CC(N2CC(c3cc4c(c(C)n3)O[C@H](C)c3c(N5CCOCC5)ccnc3N4)C2)C1 (single isomer, unassigned) , what value of CDK7 (20 nM enz.) (kinact, s^−1) is listed for CDK7/cyclinH/MAT1 trimeric complex (Homo sapiens)?
Result :: 5.902e-05

Query :: For the record CC#CC(=O)N1CC(N2CC(c3cc4c(c(C)n3)O[C@H](C)c3c(N5CCOCC5)ccnc3N4)C2)C1 (single isomer, unassigned) [Compound 440] , what value of CDK7 (20 nM enz.) (kinact, s^−1) is listed for CDK7/cyclinH/MAT1 trimeric complex (Homo sapiens)?
Result :: 0.000050424

Query :: For the record C=CC(=O)N1CC(N2CCC(c3cc(Cl)c4c(c3)Nc3nccc(N5CCS(=O)(=O)CC5)c3CO4)CC2)C1 , what value of CDK7 (20 nM enz.) (kinact, s^−1) is listed for CDK7/cyclinH/MAT1 trimeric complex (Homo sapiens)?
Result :: 5.802e-05

Query :: For the record C=CC(=O)N1CC[C@@H](N2CC(c3cc4c(c(C(F)(F)F)n3)OCc3c(N5CCOCC5)ccnc3N4)C2)C1 (single isomer, unassigned) [Compound 241] , what value of CDK7 (20 nM enz.) (kinact, s^−1) is listed for CDK7/cyclinH/MAT1 trimeric complex (Homo sapiens)?
Result :: 3.715e-05

Query :: For the record CC#CC(=O)N1CC(N2CCC(c3cc4c(c(C5CC5)n3)O[C@H](C)c3c(N5CCOCC5)ccnc3N4)CC2)C1 (single isomer, unassigned) , what value of CDK7 (20 nM enz.) (kinact, s^−1) is listed for CDK7/cyclinH/MAT1 trimeric complex (Homo sapiens)?
Result :: 4.482e-05

Query :: For the record C=CC(=O)N1CC(N2CCC(c3cc4c(c(C)n3)OCc3c(-c5cnn(C)c5)ccnc3N4)CC2)C1 [Compound 314] , what value of CDK7 (20 nM enz.) (kinact, s^−1) is listed for CDK7/cyclinH/MAT1 trimeric complex (Homo sapiens)?
Result :: 3.945e-05

Query :: For the record C=CC(=O)N1CC[C@@H](N2CC(c3cc4c(c(C(F)(F)F)n3)OCc3c(N5CCOCC5)ccnc3N4)C2)C1 (single isomer, unassigned) [Compound 402] , what value of CDK7 (20 nM enz.) (kinact, s^−1) is listed for CDK7/cyclinH/MAT1 trimeric complex (Homo sapiens)?
Result :: 0.000126

* * *

Biological target: CDK7/cyclinH/MAT1 trimeric complex (Homo sapiens, UniProt P50613)
Sequence (P50613 whole entry): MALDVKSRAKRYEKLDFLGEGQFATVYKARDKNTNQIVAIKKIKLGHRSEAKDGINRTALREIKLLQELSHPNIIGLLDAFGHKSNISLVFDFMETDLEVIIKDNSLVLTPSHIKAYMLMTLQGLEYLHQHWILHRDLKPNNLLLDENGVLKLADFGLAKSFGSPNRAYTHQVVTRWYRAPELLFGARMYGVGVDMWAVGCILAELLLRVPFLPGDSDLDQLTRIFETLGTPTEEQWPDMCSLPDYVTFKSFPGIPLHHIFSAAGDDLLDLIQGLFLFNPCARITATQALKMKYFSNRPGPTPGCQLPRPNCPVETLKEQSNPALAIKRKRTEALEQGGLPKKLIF
Sequence (P51946 whole entry partner): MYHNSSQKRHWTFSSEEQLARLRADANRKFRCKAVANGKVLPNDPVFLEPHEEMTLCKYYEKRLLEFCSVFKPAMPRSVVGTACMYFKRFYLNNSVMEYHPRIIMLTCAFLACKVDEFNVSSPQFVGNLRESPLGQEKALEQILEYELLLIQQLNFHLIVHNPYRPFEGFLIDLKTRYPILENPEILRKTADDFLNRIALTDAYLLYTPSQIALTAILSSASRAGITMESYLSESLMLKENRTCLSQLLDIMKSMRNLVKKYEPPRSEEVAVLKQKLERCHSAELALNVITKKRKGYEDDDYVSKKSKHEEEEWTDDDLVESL
Sequence (P51948 whole entry partner): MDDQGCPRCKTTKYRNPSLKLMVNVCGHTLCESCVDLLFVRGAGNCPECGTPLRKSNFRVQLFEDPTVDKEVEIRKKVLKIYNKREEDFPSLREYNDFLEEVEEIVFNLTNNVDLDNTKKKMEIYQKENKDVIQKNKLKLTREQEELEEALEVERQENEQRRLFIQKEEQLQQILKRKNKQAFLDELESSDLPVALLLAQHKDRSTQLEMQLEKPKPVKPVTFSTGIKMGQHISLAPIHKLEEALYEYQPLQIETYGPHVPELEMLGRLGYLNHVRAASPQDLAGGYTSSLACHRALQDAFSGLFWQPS
Experiment: In vitro CDK7 assay, potency of irreversible covalent inhibitors (kinact/KI), coupled PK/LDH ADP readout at 340 nm
Details: read-out: CDK7 (20 nM enz.) (kinact, s^−1), 20 nM enzyme
reported_metric: kinact (s⁻¹)
# output: bare number, implied unit s⁻¹

Query :: For the record C=CC(=O)N1CC(N2CCC(c3ccc4c(c3)Nc3nccc(N5CCS(=O)(=NC)CC5)c3CO4)CC2)C1 , what value of kinact is listed for CDK7/cyclinH/MAT1 trimeric complex (Homo sapiens, UniProt P50613)?
Result :: 6.74e-05

Query :: For the record C=CC(=O)N1CC(N2CCC(O)(c3cc(C)c4c(c3)Nc3nccc(C5CCOCC5)c3CO4)CC2)C1 , what value of kinact is listed for CDK7/cyclinH/MAT1 trimeric complex (Homo sapiens, UniProt P50613)?
Result :: 0.000115

Query :: For the record C=CC(=O)N1CC(N2CC(c3cc4c(c(C#N)n3)OCc3c(N5CCOCC5)ccnc3N4)C2)C1 , what value of kinact is listed for CDK7/cyclinH/MAT1 trimeric complex (Homo sapiens, UniProt P50613)?
Result :: 3.61e-05

Query :: For the record C=CC(=O)N1CC(N2CCC(c3ccc4c(c3)Nc3nccc(N5CCc6nn(C)cc6C5)c3CO4)CC2)C1 , what value of kinact is listed for CDK7/cyclinH/MAT1 trimeric complex (Homo sapiens, UniProt P50613)?
Result :: 7.08e-05

Query :: For the record C=CC(=O)N1CC[C@H](N2CC(c3cc4c(c(C5CC5)n3)O[C@H](C)c3c(N5CCOCC5)ccnc3N4)C2)C1 (single isomer, unassigned) , what value of kinact is listed for CDK7/cyclinH/MAT1 trimeric complex (Homo sapiens, UniProt P50613)?
Result :: 3.44e-05

Query :: For the record C=CC(=O)N1CC(n2cc(-c3cc4c(c(C)n3)OCc3c(N5CCOCC5)ccnc3N4)cn2)C1 , what value of kinact is listed for CDK7/cyclinH/MAT1 trimeric complex (Homo sapiens, UniProt P50613)?
Result :: 4.37e-05

Query :: For the record C=CC(=O)N1CC(c2ncc(-c3cc(C)c4c(c3)Nc3nccc(N5CCS(=O)(=O)CC5)c3CO4)cn2)C1 , what value of kinact is listed for CDK7/cyclinH/MAT1 trimeric complex (Homo sapiens, UniProt P50613)?
Result :: 5.75e-05

* * *

Biological target: CDK7/cyclinH/MAT1 trimeric complex (Homo sapiens, UniProt P50613)
Test: In vitro CDK7 assay, potency of irreversible covalent inhibitors (kinact/KI), coupled PK/LDH ADP readout at 340 nm
Settings: read-out: CDK7 (20 nM enz.) (kobs/[I], M^−1*s^−1), 20 nM enzyme
reported_metric: kinact/KI (M⁻¹ s⁻¹)
# output: bare number, implied unit M⁻¹ s⁻¹

Query :: So what does the record say about kinact/KI for C=CC(=O)N1CC[C@@H](N2CC(c3cc4c(c(C#N)n3)O[C@H](C)c3c(N5CCOCC5)ccnc3N4)C2)C1 (single isomer, unassigned) [Compound 506] ?
Result :: 348

Query :: So what does the record say about kinact/KI for C=CC(=O)N1CC(N2CC(c3cc(C)c4c(c3)Nc3nccc(N5CCOCC5)c3CO4)C2)C1 [Compound 215] ?
Result :: 753

Query :: So what does the record say about kinact/KI for COC(=O)/C=C/C(=O)N1CC[C@@H](N2CCC(c3cc4c(c(C)n3)OCc3c(-c5cnn(C)c5)ccnc3N4)CC2)C1 (single isomer, unassigned) [Compound 301] ?
Result :: 2790

* * *

Target: CDK7/cyclinH/MAT1 trimeric complex (Homo sapiens, UniProt P50613)
Test: In vitro CDK7 assay, potency of irreversible covalent inhibitors (kinact/KI), coupled PK/LDH ADP readout at 340 nm
Settings: read-out: CDK7 (20 nM enz.) (kinact/KI, M^−1*s^−1), 20 nM enzyme
Consider the following molecules; for each one, report its kinact/KI.
# output: bare number, implied unit M⁻¹ s⁻¹

Query :: So what does the record say about kinact/KI for C=CC(=O)N1CC(N2CC(c3cc4c(c(C#N)n3)OCc3c(N5CCOCC5)ccnc3N4)C2)C1 ?
Result :: 1360

Query :: So what does the record say about kinact/KI for C=CC(=O)N1CC(N2CCC(c3cc4c(c(C(=O)NC)c3)OCc3c(C5CCOCC5)ccnc3N4)CC2)C1 ?
Result :: 988

Query :: So what does the record say about kinact/KI for C=CC(=O)N1CC[C@H](N2CC(c3cc4c(c(C)n3)OCc3c(-c5cnn(C)c5)ccnc3N4)C2)C1 (single isomer, unassigned) ?
Result :: 80.8

Query :: So what does the record say about kinact/KI for C=CC(=O)N1CC[C@@H](N2CC(c3cc4c(c(C)n3)OCc3c(N5CCOCC5)ccnc3N4)C2)C1 (single isomer, unassigned) ?
Result :: 839
